System: UniProt P42535
Sequence (P42535 whole entry): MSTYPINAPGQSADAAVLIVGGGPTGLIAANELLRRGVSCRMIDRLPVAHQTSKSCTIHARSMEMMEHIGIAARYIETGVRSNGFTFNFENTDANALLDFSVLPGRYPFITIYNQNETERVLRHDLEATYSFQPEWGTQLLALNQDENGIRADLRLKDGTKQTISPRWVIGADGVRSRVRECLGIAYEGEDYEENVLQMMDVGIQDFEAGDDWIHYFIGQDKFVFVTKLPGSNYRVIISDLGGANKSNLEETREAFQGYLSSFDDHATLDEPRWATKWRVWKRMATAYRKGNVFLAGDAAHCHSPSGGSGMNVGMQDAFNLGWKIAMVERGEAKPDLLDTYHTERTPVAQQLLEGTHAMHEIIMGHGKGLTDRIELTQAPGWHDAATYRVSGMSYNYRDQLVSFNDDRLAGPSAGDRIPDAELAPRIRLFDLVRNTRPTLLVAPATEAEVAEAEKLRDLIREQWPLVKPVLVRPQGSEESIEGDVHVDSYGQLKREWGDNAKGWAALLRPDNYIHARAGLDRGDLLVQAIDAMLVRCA
Type: biochemical
Experimental Context: 100 μM substrate, 160 μM NADPH

Compound String | Product appearance
Oc1cc(Cl)cc(Cl)c1 | none
Oc1ccc(Cl)c(Cl)c1 | none
Oc1cc(Cl)c(Cl)c(Cl)c1 | none
